target: equine FcRn complex (equine) (UniProt F6XZ61); assay: SPR (Biacore 8K+), pH 5.9, 25 C; FcRn captured by anti-His, IgG as analyte; 1:1 kinetic model
Sequence (chain, as listed by the source, chain 1 of 2): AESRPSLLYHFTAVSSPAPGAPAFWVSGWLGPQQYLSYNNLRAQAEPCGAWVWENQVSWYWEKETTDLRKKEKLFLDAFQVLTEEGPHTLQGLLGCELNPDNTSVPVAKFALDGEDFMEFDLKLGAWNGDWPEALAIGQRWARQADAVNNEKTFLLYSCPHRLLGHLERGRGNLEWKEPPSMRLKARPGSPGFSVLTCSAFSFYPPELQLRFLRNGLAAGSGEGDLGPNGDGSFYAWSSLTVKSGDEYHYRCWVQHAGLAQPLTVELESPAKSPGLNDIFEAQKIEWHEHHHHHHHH
Sequence (P30441 other isoform, or with tags, fused parts or gaps, chain 2 of 2): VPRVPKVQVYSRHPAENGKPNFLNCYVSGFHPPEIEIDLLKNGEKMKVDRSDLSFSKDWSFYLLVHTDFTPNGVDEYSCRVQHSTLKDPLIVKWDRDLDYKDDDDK
measuredParameter: Fold increase over wild-type KD (fold)
Value expressed in fold; do not type the unit.

// solved cases for Fold increase over wild-type KD follow
[
  {
    "binder": "Equine T286E (antibody, part only; not given: variable domains and light chain, IgG1, not shown: another chain or arm of the molecule) Fc: APELLGGPSVFIFPPNPKDTLMITRTPEVTCVVVDVSQENPDVKFNWYMDGVEVREATTRPKEEQFNSTYRVVSVLRIQHQDWLSGKEFKCKVNNQALPQPIERTITKTKGRSQEPQVYVLAPHPDELSKSKVSVTCLVKDFYPPEINIEWQSNGQPELETKYSTTQAQQDSDGSYFLYSKLSVDRNRWQQGTTFTCGVMHEALHNHYTQKNVSKNPGK",
    "obsValue": 3
  },
  {
    "binder": "Equine N434Y (antibody, part only; not given: variable domains and light chain, IgG1, not shown: another chain or arm of the molecule) Fc: APELLGGPSVFIFPPNPKDTLMITRTPEVTCVVVDVSQENPDVKFNWYMDGVEVRTATTRPKEEQFNSTYRVVSVLRIQHQDWLSGKEFKCKVNNQALPQPIERTITKTKGRSQEPQVYVLAPHPDELSKSKVSVTCLVKDFYPPEINIEWQSNGQPELETKYSTTQAQQDSDGSYFLYSKLSVDRNRWQQGTTFTCGVMHEALHYHYTQKNVSKNPGK",
    "obsValue": 61
  },
  {
    "binder": "Equine M428Y (antibody, part only; not given: variable domains, light chain, IgG1, not shown: another chain or arm of the molecule) Fc: APELLGGPSVFIFPPNPKDTLMITRTPEVTCVVVDVSQENPDVKFNWYMDGVEVRTATTRPKEEQFNSTYRVVSVLRIQHQDWLSGKEFKCKVNNQALPQPIERTITKTKGRSQEPQVYVLAPHPDELSKSKVSVTCLVKDFYPPEINIEWQSNGQPELETKYSTTQAQQDSDGSYFLYSKLSVDRNRWQQGTTFTCGVYHEALHNHYTQKNVSKNPGK",
    "obsValue": 0.9
  },
  {
    "binder": "Equine Q311V (antibody, part only; not given: variable domains and light chain, IgG1, not shown: another chain or arm of the molecule) Fc: APELLGGPSVFIFPPNPKDTLMITRTPEVTCVVVDVSQENPDVKFNWYMDGVEVRTATTRPKEEQFNSTYRVVSVLRIQHVDWLSGKEFKCKVNNQALPQPIERTITKTKGRSQEPQVYVLAPHPDELSKSKVSVTCLVKDFYPPEINIEWQSNGQPELETKYSTTQAQQDSDGSYFLYSKLSVDRNRWQQGTTFTCGVMHEALHNHYTQKNVSKNPGK",
    "obsValue": 4
  }
]

For reference, reported Fold increase over wild-type KD for Equine Q309V (antibody, part only; not given: variable domains, light chain, IgG1, not shown: another chain or arm of the molecule) Fc: APELLGGPSVFIFPPNPKDTLMITRTPEVTCVVVDVSQENPDVKFNWYMDGVEVRTATTRPKEEQFNSTYRVVSVLRIVHQDWLSGKEFKCKVNNQALPQPIERTITKTKGRSQEPQVYVLAPHPDELSKSKVSVTCLVKDFYPPEINIEWQSNGQPELETKYSTTQAQQDSDGSYFLYSKLSVDRNRWQQGTTFTCGVMHEALHNHYTQKNVSKNPGK stands at 7.2

All values here come from patent US20220177549A1.
